procedure-summary: Cytotoxicity against human MIAPaCa2 cells assessed as reduction in cell viability after 24 hrs by WST8 assay
Format: functional, cell-based
experimental-parameters: MIA PaCa-2, 24 h

smiles-representation | value-operator | IC50 (µM)
COc1ccc2[nH]cc(/C=C(\C#N)C(=O)c3c[nH]c4ccccc34)c2c1 | = | 21.2
COc1ccc2[nH]cc(C(=O)/C(C#N)=C/c3c[nH]c4cc(F)ccc34)c2c1 | > | 50
COc1ccc2[nH]cc(/C=C(\C#N)C(=O)c3c[nH]c4cc(F)ccc34)c2c1 | > | 50
COc1ccc(-c2[nH]c3ccccc3c2/C=C(\C#N)C(=O)c2c[nH]c3ccccc23)cc1 | = | 24
N#C/C(=C\c1c[nH]c2ccccc12)C(=O)c1c[nH]c2ccccc12 | = | 17.9
COc1ccc2c(/C=C(\C#N)C(=O)c3c[nH]c4ccccc34)c[nH]c2c1 | = | 27.5
Cn1cc(/C=C(\C#N)C(=O)c2c[nH]c3ccccc23)c2ccccc21 | = | 31.6

----------
Tested on: A549
procedure-summary: Cytotoxicity against human A549 cells assessed as reduction in cell viability after 48 hrs by WST8 assay
Format: functional, cell-based
experimental-parameters: A549, 48 h
quantity-name: IC50

smiles-representation | quantity-name | result
COc1ccc2c(C(=O)/C(C#N)=C/c3c[nH]c4cc(F)ccc34)c[nH]c2c1 | IC50 | 0.8 µM
COc1ccc2[nH]cc(/C=C(\C#N)C(=O)c3c[nH]c4ccccc34)c2c1 | IC50 | 13.7 µM
COc1ccc2[nH]cc(/C=C(\C#N)C(=O)c3c[nH]c4ccc(OC)cc34)c2c1 | IC50 | 24.5 µM
COc1ccc2c(/C=C(\C#N)C(=O)c3c[nH]c4cc(OC)ccc34)c[nH]c2c1 | IC50 | 1.7 µM
N#C/C(=C\c1c[nH]c2cc(F)ccc12)C(=O)c1c[nH]c2ccccc12 | IC50 | 22.7 µM
COc1ccc2[nH]cc(C(=O)/C(C#N)=C/c3c[nH]c4cc(F)ccc34)c2c1 | IC50 | > 50 µM
COc1ccc(Cn2cc(/C=C(\C#N)C(=O)c3c[nH]c4cc(OC)ccc34)c3ccccc32)cc1 | IC50 | 28.9 µM
N#C/C(=C\c1c[nH]c2ccc(Br)cc12)C(=O)c1c[nH]c2ccc(Br)cc12 | IC50 | > 50 µM
COc1ccc(-c2[nH]c3ccccc3c2/C=C(\C#N)C(=O)c2c[nH]c3ccccc23)cc1 | IC50 | 3 µM
N#C/C(=C\c1c[nH]c2cc(F)ccc12)C(=O)c1c[nH]c2cc(F)ccc12 | IC50 | 36.1 µM
COc1ccc(Cn2cc(/C=C(\C#N)C(=O)c3c[nH]c4cc(F)ccc34)c3ccccc32)cc1 | IC50 | 36.3 µM
N#C/C(=C\c1cn(Cc2ccc(Cl)cc2)c2ccccc12)C(=O)c1c[nH]c2cc(F)ccc12 | IC50 | > 50 µM
Cn1cc(/C=C(\C#N)C(=O)c2c[nH]c3ccccc23)c2ccccc21 | IC50 | > 50 µM
COc1ccc2c(C(=O)/C(C#N)=C/c3cn(Cc4ccc(Cl)cc4)c4ccccc34)c[nH]c2c1 | IC50 | > 50 µM
COc1ccc2c(C(=O)/C(C#N)=C/c3c[nH]c4ccc(OC)cc34)c[nH]c2c1 | IC50 | 5.5 µM
N#C/C(=C\c1cn(Cc2ccc(Cl)cc2)c2ccc(Br)cc12)C(=O)c1c[nH]c2ccccc12 | IC50 | 24.9 µM
COc1ccc2[nH]cc(/C=C(\C#N)C(=O)c3c[nH]c4cc(F)ccc34)c2c1 | IC50 | 26.3 µM

----------
Tested on: A549
procedure-summary: Cytotoxicity against human A549 cells assessed as reduction in cell viability after 24 hrs by WST8 assay
Assay type: functional, cell-based
experimental-parameters: A549, 24 h
pIC50: −log10 of the molar value.
Cut-off 5 on pIC50, inclusive. At or above means satisfied; below means not satisfied.

smiles-representation | discrete-label
N#C/C(=C\c1cn(Cc2ccc(Cl)cc2)c2ccc(Br)cc12)C(=O)c1c[nH]c2ccccc12 | not satisfied
N#C/C(=C\c1cn(Cc2ccc(Cl)cc2)c2ccccc12)C(=O)c1c[nH]c2cc(F)ccc12 | not satisfied
COc1ccc2c(C(=O)/C(C#N)=C/c3c[nH]c4ccc(OC)cc34)c[nH]c2c1 | satisfied
COc1ccc2c(C(=O)/C(C#N)=C/c3cn(Cc4ccc(Cl)cc4)c4ccccc34)c[nH]c2c1 | not satisfied
CO[C@@]12[C@H](COC(N)=O)C3=C(C(=O)C(C)=C(N)C3=O)N1C[C@@H]1N[C@@H]12 | satisfied
N#C/C(=C\c1c[nH]c2cc(F)ccc12)C(=O)c1c[nH]c2ccccc12 | not satisfied
COc1ccc2c(/C=C(\C#N)C(=O)c3c[nH]c4cc(OC)ccc34)c[nH]c2c1 | satisfied
N#C/C(=C\c1c[nH]c2cc(F)ccc12)C(=O)c1c[nH]c2cc(F)ccc12 | not satisfied
COc1ccc(Cn2cc(/C=C(\C#N)C(=O)c3c[nH]c4ccccc34)c3ccccc32)cc1 | not satisfied
N#C/C(=C\c1c[nH]c2ccc(Br)cc12)C(=O)c1c[nH]c2ccc(Br)cc12 | not satisfied

Values from ChEMBL document CHEMBL3351877
